Source of measurements: the nanobody polyreactivity screen of Harvey et al. (2022)

Experiment: yeast display, Sf9 membrane polyspecificity reagent, FACS + sequencing; frameworks hold sequencing errors

querySequence	polyreactivity (PSR sort gate)
QVQLVESGGGLVKAGGSLRLSCAASGRTFGSYAMGWYRLAPGTERELVAAITGSGAGTYYADSVKGRFTISRDNAKNTVYLQMNSLKPEDTSVYYCAARRPWQFYYWVQGTQVTVSS	high polyreactivity
QVQLVESGGGLVQAGGSLRLSCAASGRTFIRNAMGWYRQAPGKERELVAAISRGGGTYYADSVKGRFTISRDNAKNTVYLQMNSLKPEDTAVYYCAAGFRSPYYWGQGTQVTVSS	high polyreactivity

* * *

Assay: yeast display, Sf9 membrane polyspecificity reagent, FACS + sequencing; frameworks hold sequencing errors
propertyMeasured: polyreactivity (PSR sort gate)

querySequence	valueObserved
QVQLVESGGGLVQAGGSLRLSCAASGFISYTYMGWYRQAPGKERELVAGITGSGGSTYYADSVKGRFTISRDNAKNTVYLQMNILKPEDTAVYYCAAPRYLSYVRRYDYWGQGTQVTVSS	high polyreactivity
QVQLVESGGGLVQAGGSLRLSCAASGFTFGGYAMGWYRQAPGKERELVAAISSGGSTYYADSVKGRFTISRDNAKNTVYLQMNSLKPEDTAVYYCATDLRRYSYRGGHYYWGQGTQVTVSS	high polyreactivity
QVQLVESGGGLVQAGGSLRLSCAASGMVWYRQAPGKERELVAAITSGDSTNYADSVKGRFTISRDNAKNTVYLQMNCLKPEDTSVYYCAADPDYLYAYFYWGQGTQVSVSS	low polyreactivity
QVQLVESGGGLVQAGGSLRLSCAASGLTFIVYAMAWYRQAPGKERELVADITWSGGSTYYADSVKGRFTISRDNAKNTVYLQMNSLKPEDTAVYYCNRQSAKIMDYWGQGTQVTVSS	low polyreactivity
QVQLVESGGGLVQAGGSLRLSCAASGSIFLSNAMGWSRQAPGKERELVADIDWTGGDTYYADSVKGRFTISRDNAKNTVYLQMNSLKPEDTAVYYCAADYGYRNLLTEYGYWGQGTQVTVSS	low polyreactivity

* * *

Assay: yeast display, Sf9 membrane polyspecificity reagent, FACS + sequencing; frameworks hold sequencing errors
propertyMeasured: polyreactivity (PSR sort gate)

querySequence	propertyMeasured	valueObserved
QVQLVESGGGLVQAGGSLRLSCAASGRIFDYNAMGWYRQAPAKERELVAAITWSGGSTHYADSVKGRFTISRDNAKNTVYLQMKSLKPEDTAVYYCAADIGGDYLVFYYRGGYDYWGQGNQVTVSS	polyreactivity (PSR sort gate)	low polyreactivity
QVQLVESGGGLVQAGGSLRLSCAASGIIFSSNAMGWYRQAPGKERELVAAITRRGGSTRYADSVKGRFTISRDNAKNTVYLQMNSLKPEDTAVYYCNALTGYPYRWGISYPMDYWGQGTQVTVSS	polyreactivity (PSR sort gate)	high polyreactivity
QVHLVESGGGLVQAGGSLRLSCAASGLTFYWYVMGWYRQAPGKERELVAVITGSGGSTYYADSVKGRFTISRDNAKNTVYLQMNSLKPEDTAAYYCARGGRYNRYYYWGQGTQVTVSS	polyreactivity (PSR sort gate)	high polyreactivity
QVQLVESGGGLVQAGGSLRLSCAASGSTFSRYAMGWYRPAPGKERELVAAITRSGGGTHYADSVKGRFTISRDNAKNTVYLQMNSLKPEETAVYYCAKRQSGYRYDYWGQGTEVTVSS	polyreactivity (PSR sort gate)	low polyreactivity
QVQLVESGGGLVQAGGSLRLSCAASGITFYSYAMGSYRQAPGKERELVAAISWRGGSTRYADSVKGRFTISRDNAKNTVYLQMNSLKPEDTAVYYCAARLRTKLPIPSTVGYWGQGTQVTVSS	polyreactivity (PSR sort gate)	high polyreactivity
